# Test system: Mycolicibacterium smegmatis
# protocol summary: Antibacterial activity was evaluated against Mycobacterium smegmatis
# Type: functional
attribute measured: MIC (µM)
Kindly answer with a numeric value in µM, unit omitted.

- O=Nc1c2ccccc2n2nnc3ccc(Cl)cc3c12: 4.2

Now consider a different compound.
Note to self: MIC of O=Nc1c2ccccc2n2nnc3ccccc3c12 with Mycolicibacterium smegmatis was 2.5

---

# System: CCRF-CEM
# protocol summary: Antitumor activity was evaluated against leukemia cell line CCRF-CEM(human acute T lymphoblastic leukemia).
# Format: functional, cell-based
Entries and their measured pIC50 follow.
The read-out pIC50 is expressed as -log10 of concentration in moles per litre.

Would you please look over these solved cases?
• O=Nc1c2ccccc2n2nnc3cc(Cl)ccc3c12 = 5.74
• O=Nc1c2cc([N+](=O)[O-])ccc2n2nnc3ccccc3c12 = 5.09

Reported pIC50 for O=Nc1c2ccccc2n2nnc3ccccc3c12 was 5.15

Reported pIC50 for O=Nc1c2cc(Cl)ccc2n2nnc3ccccc3c12 was 7.10

Reported pIC50 for Cc1ccc2nnn3c4ccccc4c(N=O)c3c2c1 was 6.30

Reported pIC50 for COc1ccc2c(c1)c(N=O)c1c3ccccc3nnn21 was 5.14

Reported pIC50 for O=Nc1c2ccccc2n2nnc3ccc(Cl)cc3c12 was 5.30

---

# Tested on: MT4
# protocol summary: Antitumor activity was evaluated against leukemia cell line MT-4(human CD4+ T cells expressing the TAT gene of HTLV-1).
# Type: functional, cell-based
Entries and their measured IC50 follow.
Kindly answer with a numeric value in nM, unit omitted.

Would you please look over these solved cases?
• COc1cccc2c1C(=O)c1c(O)c3c(c(O)c1C2=O)C[C@@](O)(C(=O)CO)C[C@@H]3O[C@H]1C[C@H](N)[C@H](O)[C@H](C)O1 [DOXORUBICIN] = 20
• O=Nc1c2cc(Cl)ccc2n2nnc3ccccc3c12 = 500
• O=Nc1c2cc([N+](=O)[O-])ccc2n2nnc3ccccc3c12 = 1200
• O=Nc1c2ccccc2n2nnc3ccc(Cl)cc3c12 = 1700

Reported IC50 for COc1ccc2c(c1)c(N=O)c1c3ccccc3nnn21 was 1100

---

Entries and their measured MIC follow.
# Test system: Aspergillus fumigatus
# protocol summary: Antimycotic activity against Aspergillus fumigatus was evaluated as compound minimum inhibitory concentration at which no macroscopic signs of fungal growth were detected.
# Assay type: functional

Would you please look over these solved cases?
• O=Nc1c2ccccc2n2nnc3ccc(Cl)cc3c12 = 9.4 µM
• COc1cccc2c1C(=O)c1c(O)c3c(c(O)c1C2=O)C[C@@](O)(C(=O)CO)C[C@@H]3O[C@H]1C[C@H](N)[C@H](O)[C@H](C)O1 = > 2.5 µM

Now consider a different compound.
Reported MIC for COc1ccc2c(c1)c(N=O)c1c3ccccc3nnn21 was > 200 µM

---

Entries and their measured MIC follow.
# Tested on: Cryptococcus neoformans
# protocol summary: Antimycotic activity against Cryptococcus neoformans was evaluated. MIC was defined as compound concentration at which no macroscopic signs of fungal growth were detected.
# Assay type: functional

* O=Nc1c2ccccc2n2nnc3ccc(Cl)cc3c12 | 0.8 µM

Reported MIC for COc1cccc2c1C(=O)c1c(O)c3c(c(O)c1C2=O)C[C@@](O)(C(=O)CO)C[C@@H]3O[C@H]1C[C@H](N)[C@H](O)[C@H](C)O1 was > 2.5 µM

Reported MIC for Cc1ccc2nnn3c4ccccc4c(N=O)c3c2c1 was > 200 µM

---

# Test system: Mycobacterium tuberculosis
# protocol summary: Antibacterial activity was evaluated against Mycobacterium tuberculosis (ATCC)
# Type: functional
attribute measured: MIC (µM)
Kindly answer with a numeric value in µM, unit omitted.

Would you please look over these solved cases?
- COc1ccc2c(c1)c(N=O)c1c3ccccc3nnn21: 5.3
- O=Nc1c2ccccc2n2nnc3ccccc3c12: 4.6
- O=Nc1c2ccccc2n2nnc3ccc(Cl)cc3c12: 1.8
- O=Nc1c2ccccc2n2nnc3cc(Cl)ccc3c12: 4.4
- O=Nc1c2cc(Cl)ccc2n2nnc3ccccc3c12: 4.7

Reported MIC for Cc1ccc2nnn3c4ccccc4c(N=O)c3c2c1 was 9.3

Reported MIC for CN[C@@H]1[C@H](O[C@H]2[C@H](O[C@H]3[C@H](O)[C@@H](O)[C@H](N=C(N)N)[C@@H](O)[C@@H]3N=C(N)N)O[C@@H](C)[C@]2(O)C=O)O[C@@H](CO)[C@H](O)[C@H]1O was 5.4

---

# Test system: HeLa
# protocol summary: Antitumor activity was evaluated against human cervix carcinoma cell line HeLa.
# Type: functional, cell-based
pIC50: −log10 of the molar value.
Criterion: pIC50 meeting or surpassing 5. Met: 1 (yes). Not met: 0 (no).

Please review the entries below; each comes with its answer.
- O=Nc1c2cc([N+](=O)[O-])ccc2n2nnc3ccccc3c12: 0 (no)
- O=Nc1c2ccccc2n2nnc3ccc(Cl)cc3c12: 1 (yes)

stdin: Check this compound for pIC50 at or above 5: O=Nc1c2cc(Cl)ccc2n2nnc3ccccc3c12
stdout: 1 (yes)

---

Entries and their measured MIC follow.
# System: Mycobacterium
# protocol summary: Antibacterial activity was evaluated against MAC (Mycobacterium Avium Complex )
# Assay type: functional
Reply with a number, then the unit it belongs to.

Would you please look over these solved cases?
- Cc1ccc2nnn3c4ccccc4c(N=O)c3c2c1: 5 µM
- O=Nc1c2cc(Cl)ccc2n2nnc3ccccc3c12: 0.6 µM
- O=Nc1c2ccccc2n2nnc3ccccc3c12: 1.2 µM
- CN[C@@H]1[C@H](O[C@H]2[C@H](O[C@H]3[C@H](O)[C@@H](O)[C@H](N=C(N)N)[C@@H](O)[C@@H]3N=C(N)N)O[C@@H](C)[C@]2(O)C=O)O[C@@H](CO)[C@H](O)[C@H]1O [STREPTOMYCIN]: 7.4 µM

Reported MIC for COc1ccc2c(c1)c(N=O)c1c3ccccc3nnn21 was 2.5 µM

Reported MIC for O=Nc1c2ccccc2n2nnc3ccc(Cl)cc3c12 was 2.5 µM

Reported MIC for O=Nc1c2ccccc2n2nnc3cc(Cl)ccc3c12 was 0.6 µM

---

# Test system: CHO-K1
# protocol summary: Antitumor activity was evaluated against Chinese hamster ovary carcinoma cell line CHO-K1.
# Format: functional, cell-based
# condition details: Cricetulus griseus
Entries and their measured IC50 follow.
Kindly answer with a numeric value in µM, unit omitted.

* COc1cccc2c1C(=O)c1c(O)c3c(c(O)c1C2=O)C[C@@](O)(C(=O)CO)C[C@@H]3O[C@H]1C[C@H](N)[C@H](O)[C@H](C)O1 | 0.4

Note to self: IC50 of O=Nc1c2cc([N+](=O)[O-])ccc2n2nnc3ccccc3c12 with CHO-K1 was 42

Note to self: IC50 of O=Nc1c2ccccc2n2nnc3ccccc3c12 with CHO-K1 was 45

Note to self: IC50 of O=Nc1c2cc(Cl)ccc2n2nnc3ccccc3c12 with CHO-K1 was 1.6

Note to self: IC50 of O=Nc1c2ccccc2n2nnc3cc(Cl)ccc3c12 with CHO-K1 was 9.3

Note to self: IC50 of Cc1ccc2nnn3c4ccccc4c(N=O)c3c2c1 with CHO-K1 was 6.5

Note to self: IC50 of O=Nc1c2ccccc2n2nnc3ccc(Cl)cc3c12 with CHO-K1 was 31

---

Entries and their measured pIC50 follow.
# System: MT4
# protocol summary: Antitumor activity was evaluated against leukemia cell line MT-4(human CD4+ T cells expressing the TAT gene of HTLV-1).
# Type: functional, cell-based
The read-out pIC50 is expressed as -log10 of concentration in moles per litre.

- Cc1ccc2nnn3c4ccccc4c(N=O)c3c2c1: 5.89
- O=Nc1c2ccccc2n2nnc3cc(Cl)ccc3c12: 6.05

Reported pIC50 for O=Nc1c2ccccc2n2nnc3ccccc3c12 was 5.85

---

Entries and their measured pIC50 follow.
# Test system: KB
# protocol summary: Antiproliferative activity against drug-resistant tumor cell line KB7D.
# Type: functional, cell-based
# condition details: Homo sapiens
The read-out pIC50 is expressed as -log10 of concentration in moles per litre.

Would you please look over these solved cases?
- O=Nc1c2cc(Cl)ccc2n2nnc3ccccc3c12: 5.77
- CC[C@@]1(O)C(=O)OCc2c1cc1n(c2=O)Cc2cc3ccccc3nc2-1 [CAMPTOTHECIN]: 7.46

Now consider a different molecule.
Reported pIC50 for CC[C@]1(O)C[C@H]2CN(CCc3c([nH]c4ccccc34)[C@@](C(=O)OC)(c3cc4c(cc3OC)N(C=O)[C@H]3[C@@](O)(C(=O)OC)[C@H](OC(C)=O)[C@]5(CC)C=CCN6CC[C@]43[C@@H]65)C2)C1 [VINCRISTINE] was 7.46

---

# System: CCRF-SB
# protocol summary: Antitumor activity was evaluated against leukemia cell line CCRF-SB(human acute B lymphoblastic leukemia).
# Type: functional, cell-based
attribute measured: IC50 (µM)
Kindly answer with a numeric value in µM, unit omitted.

* O=Nc1c2ccccc2n2nnc3ccc(Cl)cc3c12 | 7
* COc1ccc2c(c1)c(N=O)c1c3ccccc3nnn21 | 5

Now consider a different compound.
Reported IC50 for O=Nc1c2ccccc2n2nnc3cc(Cl)ccc3c12 was 2.8
